Data origin, for the record: paper PMC13492205

test: In vitro metabolic stability in human liver microsomes; assay type: in vitro ADME; conditions: read-out: in vitro t1/2
property-name: half-life at 2 μM

Q. Quick one: half-life at 2 μM of O=c1cc(N2CCOCC2)oc2c(-c3ccc4c(c3)OCCO4)csc12 [SF2523] ?
A. < 2 min

---

experiment: Plasma protein binding by rapid equilibrium dialysis; format: in vitro ADME, mouse; conditions: mouse, mouse plasma in rapid equilibrium dialysis device, rapid equilibrium dialysis device, mouse plasma, mean, n = 3; read-out: Percentage device recovery
property-name: recovery at 5 h

Q. Quick one: recovery at 5 h of O=c1cc(N2CCOCC2)oc2c(-c3ccc4c(c3)OCCO4)csc12 ?
A. > 90%

---

experiment: In vitro metabolic stability in human S9; format: in vitro ADME; details: S9 fraction; human S9, 2 μM; read-out: in vitro t1/2
property-name: half-life at 2 μM

Q. Quick one: half-life at 2 μM of O=c1cc(N2CCOCC2)oc2c(-c3ccc4c(c3)OCCO4)csc12 ?
A. < 2 min

---

experiment: Stability of SF2523 in mouse plasma under storage conditions; type: in vitro ADME; conditions: mouse plasma; Long-term stability (60 days, −80°C); nominal 200 ng/ml; mean ± SD, n = 3; read-out: Stability recovery, Accuracy (%)
property-name: recovery at 60 days, 200 ng/ml (%)
Give the number; % is assumed, so skip it.

Q. Quick one: recovery at 60 days, 200 ng/ml of O=c1cc(N2CCOCC2)oc2c(-c3ccc4c(c3)OCCO4)csc12 [SF2523] ?
A. 103

---

assay: Stability of SF2523 in mouse plasma under storage conditions; assay type: in vitro ADME; settings: mouse; extracted plasma samples; Autosampler stability (4°C, 24 h); nominal 375 ng/ml; mean ± SD, n = 3; read-out: Stability recovery, Accuracy (%)
property-name: recovery at 24 h, 375 ng/ml (%)
Give the number; % is assumed, so skip it.

Q. Quick one: recovery at 24 h, 375 ng/ml of O=c1cc(N2CCOCC2)oc2c(-c3ccc4c(c3)OCCO4)csc12 ?
A. 103

---

assay: Stability of SF2523 in mouse plasma under storage conditions; type: in vitro ADME; settings: mouse; extracted plasma samples; Autosampler stability (4°C, 24 h); nominal 200 ng/ml; mean ± SD, n = 3; read-out: Stability recovery, Accuracy (%)
property-name: recovery at 24 h, 200 ng/ml (%)
Give the number; % is assumed, so skip it.

Q. Quick one: recovery at 24 h, 200 ng/ml of O=c1cc(N2CCOCC2)oc2c(-c3ccc4c(c3)OCCO4)csc12 ?
A. 101

---

experiment: Plasma protein binding by rapid equilibrium dialysis; assay type: in vitro ADME, mouse; details: mouse plasma, at 1 µM, mean, n = 3; read-out: Percentage plasma protein bound (converted)
property-name: fraction unbound at 5 h, 1 µM
Please give only the number in your answer, with no unit.

Q. Quick one: fraction unbound at 5 h, 1 µM of O=c1cc(N2CCOCC2)oc2c(-c3ccc4c(c3)OCCO4)csc12 [SF2523] ?
A. 0.0418

---

test: Plasma protein binding by rapid equilibrium dialysis; type: in vitro ADME, mouse; details: mouse plasma, at 10 µM, mean, n = 3; read-out: Percentage plasma protein bound (converted)
property-name: fraction unbound at 5 h, 10 µM
Please give only the number in your answer, with no unit.

Q. Quick one: fraction unbound at 5 h, 10 µM of O=c1cc(N2CCOCC2)oc2c(-c3ccc4c(c3)OCCO4)csc12 ?
A. 0.0327
